Assign log10(IC50) to each entry below.
biological target: Human mTOR (FLAG-TOR) (Homo sapiens); experiment: mTOR kinase assay (DELFIA format, purified enzyme); type: biochemical; details: read-out: IC50 mTOR
Sequence (P42345 1360-2549 limits assumed): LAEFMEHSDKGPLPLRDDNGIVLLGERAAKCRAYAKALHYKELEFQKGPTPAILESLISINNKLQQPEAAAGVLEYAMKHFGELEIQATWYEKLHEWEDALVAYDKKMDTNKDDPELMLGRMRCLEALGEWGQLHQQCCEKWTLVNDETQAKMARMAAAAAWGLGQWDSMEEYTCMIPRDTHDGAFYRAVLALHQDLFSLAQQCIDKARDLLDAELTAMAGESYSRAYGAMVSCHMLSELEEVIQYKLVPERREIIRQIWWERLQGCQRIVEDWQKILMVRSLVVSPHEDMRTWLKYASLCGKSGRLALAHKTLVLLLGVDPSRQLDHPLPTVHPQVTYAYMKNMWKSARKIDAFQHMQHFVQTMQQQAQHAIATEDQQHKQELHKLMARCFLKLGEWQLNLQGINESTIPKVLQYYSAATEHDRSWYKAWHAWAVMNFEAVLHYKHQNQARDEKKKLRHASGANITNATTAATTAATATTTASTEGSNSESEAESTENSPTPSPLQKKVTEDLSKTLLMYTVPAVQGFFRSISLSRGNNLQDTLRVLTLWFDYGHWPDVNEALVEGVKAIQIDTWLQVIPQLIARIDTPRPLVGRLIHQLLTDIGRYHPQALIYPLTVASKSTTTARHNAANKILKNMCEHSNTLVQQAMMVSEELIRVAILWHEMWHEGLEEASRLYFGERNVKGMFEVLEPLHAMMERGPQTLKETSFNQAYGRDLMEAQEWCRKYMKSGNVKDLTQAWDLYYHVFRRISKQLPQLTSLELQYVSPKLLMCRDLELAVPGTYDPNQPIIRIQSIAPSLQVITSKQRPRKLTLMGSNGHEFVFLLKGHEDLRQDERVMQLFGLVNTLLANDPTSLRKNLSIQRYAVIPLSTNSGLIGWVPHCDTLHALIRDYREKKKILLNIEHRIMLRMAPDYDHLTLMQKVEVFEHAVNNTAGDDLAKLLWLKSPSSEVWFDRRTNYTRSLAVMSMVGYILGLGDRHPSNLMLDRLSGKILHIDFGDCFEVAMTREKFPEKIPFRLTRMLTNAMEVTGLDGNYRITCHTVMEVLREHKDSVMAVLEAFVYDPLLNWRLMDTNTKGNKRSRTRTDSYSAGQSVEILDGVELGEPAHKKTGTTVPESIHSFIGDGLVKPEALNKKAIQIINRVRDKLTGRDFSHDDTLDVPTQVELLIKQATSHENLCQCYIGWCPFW
// do not treat as linear: log10 of IC50, unit nM

## Task Which log10(IC50) is reported for this compound? Cc1ccc(-c2nc(-c3ccc(NC(=O)Nc4ccc(C(=O)NCCN(C)C)cc4)cc3)nc(N3CCOCC3)n2)cc1 [Example 542]
## Result 1.33

## Task // query log10(IC50) value for entry CN(C)CCN(C)C(=O)c1ccc(NC(=O)Nc2ccc(-c3nc(NS(=O)(=O)c4ccccc4)nc(N4CCOCC4)n3)cc2)cc1 [Example 787]
## Result 1.77

## Task // returns reported log10(IC50) for input CN1CCN(c2ccc(NC(=O)Nc3ccc(-c4nc(N5CC6CCC(C5)O6)nc(N5C6CCC5COC6)n4)cc3)cc2)CC1 [Example 303]
## Result 1.23

## Task I have this compound here, CN(C)CCN(C)C(=O)Nc1ccc(NC(=O)Nc2ccc(-c3nc(N4CCOCC4)nc(N4CCOCC4)n3)cc2)cc1 [Example 500] , and I need its recorded log10(IC50).
## Result 0.04

## Task Please report the recorded log10(IC50) for C[C@H]1COCCN1c1nc(-c2ccc(NC(=O)Nc3ccc(C(=O)N4CC[C@@H](N(C)C)C4)cc3)cc2)nc(N2C3CCC2COC3)n1 [Example 833] .
## Result 2.27

## Task Could you tell me which log10(IC50) is on file for O=C(Nc1ccc(CO)cc1)Nc1ccc(-c2nc(N3CCOCC3)nc(N3CCOCC3)n2)cc1 [Example 51] ?
## Result 0.28

## Task // query log10(IC50) value for entry O=C(Nc1ccc(-c2nc(N3CC4CCC(C3)O4)nc(N3CC4CCC(C3)O4)n2)cc1)NC1CC1 [Example 30]
## Result 0.42
